target: TAS2R38 (Homo sapiens, UniProt P59533, A49P/I296V)
Construct: expressed in transfected cells; host or cells: HEK-293T cells stably expressing the chimeric G-protein subunit G16gust44
protocolDetails: Calcium imaging (FLIPR) of TAS2R38-PAV transfected HEK-293T G16gust44 cells, activation by compound alone
Format: cell-based
measurementSetup: EC50 of phenylthiourea, alone; TAS2R38 transfected cells, FIG. 5
measurementName: EC50 (µM)
One number for each entry, in µM.

query: Please give the measured EC50 for this molecule: NC(=S)Nc1ccccc1 [phenylthiourea, phenylthiocarbamide, reference compound]
result: 1.4

---

target: TAS2R38 (Homo sapiens, UniProt P59533, A49P/I296V)
Construct: expressed in transfected cells; host or cells: HEK-293T cells stably expressing the chimeric G-protein subunit G16gust44
Sequence (P59533 1-333 A49P/I296V): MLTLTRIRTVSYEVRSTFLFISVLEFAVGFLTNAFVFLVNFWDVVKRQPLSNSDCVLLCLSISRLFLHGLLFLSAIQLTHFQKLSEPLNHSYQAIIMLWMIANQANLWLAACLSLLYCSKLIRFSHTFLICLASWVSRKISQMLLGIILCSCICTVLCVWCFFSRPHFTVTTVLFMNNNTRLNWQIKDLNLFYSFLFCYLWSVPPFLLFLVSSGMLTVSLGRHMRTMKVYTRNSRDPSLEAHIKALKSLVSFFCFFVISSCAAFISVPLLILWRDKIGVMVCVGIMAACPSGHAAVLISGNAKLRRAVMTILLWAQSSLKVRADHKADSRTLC
protocolDetails: Calcium imaging (FLIPR) of TAS2R38 transfected cells, antagonists applied as mixture with TAS2R38 agonists
Type: cell-based
measurementSetup: EC50 of phenylthiourea, +0.5 mM diethylthiourea
measurementName: EC50 (µM)
Answers are plain numbers, in µM.

query: Report EC50 for NC(=S)Nc1ccccc1 [phenylthiourea, phenylthiocarbamide, reference compound] please.
result: 4.8

The measurements presented in this section are drawn from patent US8158442B2.
